Measured pKd, listed per entry for reference.
# Target under test: hen egg lysozyme, P00698
# Sequence (P00698 19-147): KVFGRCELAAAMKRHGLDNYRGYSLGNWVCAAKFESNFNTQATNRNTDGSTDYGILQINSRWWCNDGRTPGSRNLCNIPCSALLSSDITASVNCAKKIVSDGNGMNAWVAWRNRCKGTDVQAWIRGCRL
# Assay text: SPR
# Measurement context: chain shown with the change;; parent: est. 3.1e-12; read off a plot
pKd: −log10 of the molar value.
Property label: pKd

binder="anti-lysozyme VHH D3-L11, wild type A79V (protein) DVQLVESGGGSVQAGGSLRLSCAASGSTDSIEYMTWFRQAPGKAREGVAALYTHTGNTYYTDSVKGRFTISQDKAKNMVYLRMDSVKSEDTAIYTCGATRKYVPVRFALDQSSYDYWGQGTQVTVSS" value_observed=11.44
binder="anti-lysozyme VHH D3-L11, wild type A79R (protein) DVQLVESGGGSVQAGGSLRLSCAASGSTDSIEYMTWFRQAPGKAREGVAALYTHTGNTYYTDSVKGRFTISQDKAKNMRYLRMDSVKSEDTAIYTCGATRKYVPVRFALDQSSYDYWGQGTQVTVSS" value_observed=10.59
binder="anti-lysozyme VHH D3-L11, wild type A79H (protein) DVQLVESGGGSVQAGGSLRLSCAASGSTDSIEYMTWFRQAPGKAREGVAALYTHTGNTYYTDSVKGRFTISQDKAKNMHYLRMDSVKSEDTAIYTCGATRKYVPVRFALDQSSYDYWGQGTQVTVSS" value_observed=10.64
binder="anti-lysozyme VHH D3-L11, wild type A79C (protein) DVQLVESGGGSVQAGGSLRLSCAASGSTDSIEYMTWFRQAPGKAREGVAALYTHTGNTYYTDSVKGRFTISQDKAKNMCYLRMDSVKSEDTAIYTCGATRKYVPVRFALDQSSYDYWGQGTQVTVSS" value_observed=11.43
